target: UniProtKB P12268; test: IMPDH2 enzyme inhibition assay (recombinant protein, absorbance at 340 nm); conditions: recombinant IMPDH2, IMP and NAD+ substrates, pH 7.2, 37 °C; mean ± SD of three triplicate experiments; read-out: IC50 Inosine-5′-Monophosphate Dehydrogenase (IMPDH2)
The reader will find reported log10 of IC50 values listed item by item below.
measure: log10 of IC50 (log10 of the value in µM)

# compound, log10 of IC50
records = [
    ("COc1c(C)c2c(c(O)c1C/C=C(\\C)CCC(=O)N[C@@H](Cc1ccccc1)C(=O)O)C(=O)OC2", 1.38),
    ("COc1c(C)c2c(c(O)c1C/C=C(\\C)CCC(=O)N[C@H](C(=O)O)C(C)C)C(=O)OC2", 1.20),
    ("COc1c(C)c2c(c(O)c1C/C=C(\\C)CCC(=O)OCC(O)CO)C(=O)OC2 (stereo not shown)", 0.93),
    ("COc1c(C)c2c(c(O)c1CCC(C)C(=O)O)C(=O)OC2 (stereo not shown)", 1.39),
    ("COc1c(C)c2c(c(O)c1C/C=C(\\C)CCC(=O)O)C(=O)OC2O (stereo not shown) [Compound 2, 3-hydroxy mycophenolic acid]", -0.02),
    ("COc1c(C)c2c(c(O)c1C/C=C(\\C)CCC(=O)O)C(=O)OC2OC (stereo not shown)", -0.08),
    ("COc1c(C)c2c(c(O)c1C/C=C(\\C)CCC(=O)NCCCC(=O)O)C(=O)OC2", 1.10),
    ("COC(=O)CC/C(C)=C/Cc1c(O)c2c(c(C)c1OC)C(O)OC2=O (stereo not shown)", 0.51),
    ("COCc1c2c(c(O)c(C/C=C(\\C)CCC(=O)O)c1OC)C(=O)OC2", -0.04),
    ("COc1c(C)c2c(c(O)c1C/C=C(\\C)CCC(=O)N[C@@H](C)C(=O)O)C(=O)OC2", 1.24),
]
